Exercise: for every item that follows, state its recorded koff.
Molecular target: T1, huCD46-His (human, UniProt P15529 35-343)
T1 construct: extracellular domain; Immobilised by amine coupling on the SPR chip; It may be the same protein as the ELISA antigen; also called Human CD46-His; human CD46; not shown: His tag
T1 sequence (looked up): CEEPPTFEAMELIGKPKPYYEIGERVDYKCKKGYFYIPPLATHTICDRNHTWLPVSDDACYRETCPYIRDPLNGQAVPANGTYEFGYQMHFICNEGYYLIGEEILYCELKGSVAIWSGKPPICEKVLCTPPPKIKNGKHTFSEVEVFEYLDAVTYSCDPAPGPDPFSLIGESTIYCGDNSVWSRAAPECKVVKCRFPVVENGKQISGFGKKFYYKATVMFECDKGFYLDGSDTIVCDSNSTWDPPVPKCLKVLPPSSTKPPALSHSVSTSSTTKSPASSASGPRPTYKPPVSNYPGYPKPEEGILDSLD
Assay: SPR, huCD46-His immobilised, antibody as analyte, pH 7.4
Method: Binding kinetics of anti-CD46 antibodies were measured by surface plasmon resonance on a SPR2/4 instrument (Sierra Sensors, Hamburg, Germany) and flat amine sensor chips. The SPR sensor contained four flow cells (FC1-FC4), each of which can be addressed individually or in groups. huCD46-His was immobilized in FC2, and cynoCD46-His was immobilized in FC4. No protein was immobilized in FC1 and FC3 which were used as control surfaces for FC2 and FC4, respectively. […] The off-rate was measured for 360 s. […]
Answers are plain numbers, in s⁻¹.

Reference set (2 entries):
| Binder | koff, s⁻¹ |
| --- | --- |
| Benchmark (BM) BA-133-00-01 (antibody, V domains shown, the killing assays used the ADC form; Conjugation site and payload are not described; also called BM (bench mark)) VH: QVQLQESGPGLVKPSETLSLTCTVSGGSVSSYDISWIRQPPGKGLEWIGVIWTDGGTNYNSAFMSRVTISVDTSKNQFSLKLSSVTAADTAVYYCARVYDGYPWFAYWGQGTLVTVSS VL: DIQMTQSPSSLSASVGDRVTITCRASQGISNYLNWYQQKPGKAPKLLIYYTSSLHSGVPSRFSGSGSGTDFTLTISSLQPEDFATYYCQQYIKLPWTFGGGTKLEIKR | 0.00119 |
| BA-133-04-03 (antibody, V domains shown, also called CPE hit BA133-04-03) VH: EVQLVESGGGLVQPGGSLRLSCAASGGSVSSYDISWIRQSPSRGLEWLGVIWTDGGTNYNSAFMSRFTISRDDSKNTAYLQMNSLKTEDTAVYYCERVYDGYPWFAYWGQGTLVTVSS VL: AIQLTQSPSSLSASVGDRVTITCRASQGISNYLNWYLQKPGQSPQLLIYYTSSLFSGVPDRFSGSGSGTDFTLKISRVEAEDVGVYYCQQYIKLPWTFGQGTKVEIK | 0.00249 |

// input: 3 binders below; output: koff for each
1. BAP133-2-03-03-SL (antibody, V domains shown, the killing assays used the ADC form; also called BAP133-02-03-03-SL; CPE hit BAP133-2-03-03-SL) VH: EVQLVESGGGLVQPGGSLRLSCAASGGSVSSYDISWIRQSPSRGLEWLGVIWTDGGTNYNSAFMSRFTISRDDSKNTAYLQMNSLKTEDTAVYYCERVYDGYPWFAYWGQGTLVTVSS VL: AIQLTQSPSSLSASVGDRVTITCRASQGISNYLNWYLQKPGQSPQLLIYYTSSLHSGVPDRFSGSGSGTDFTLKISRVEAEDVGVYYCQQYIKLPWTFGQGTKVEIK
2. BAP133-2-02-12 (antibody, V domains shown, also called BAP133-02-02-12; CPE hit BAP133-2-02-12) VH: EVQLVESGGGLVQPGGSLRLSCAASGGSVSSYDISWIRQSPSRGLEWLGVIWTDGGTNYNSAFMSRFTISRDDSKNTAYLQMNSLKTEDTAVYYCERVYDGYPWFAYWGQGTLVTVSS VL: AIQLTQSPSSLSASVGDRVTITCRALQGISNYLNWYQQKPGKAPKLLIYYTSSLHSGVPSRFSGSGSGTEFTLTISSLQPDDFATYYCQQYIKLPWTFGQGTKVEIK
3. BA-133-04-01 (antibody, V domains shown, also called CPE hit BA133-04-01) VH: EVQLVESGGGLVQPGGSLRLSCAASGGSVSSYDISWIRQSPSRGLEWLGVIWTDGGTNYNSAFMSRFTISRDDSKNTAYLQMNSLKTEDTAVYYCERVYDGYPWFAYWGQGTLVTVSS VL: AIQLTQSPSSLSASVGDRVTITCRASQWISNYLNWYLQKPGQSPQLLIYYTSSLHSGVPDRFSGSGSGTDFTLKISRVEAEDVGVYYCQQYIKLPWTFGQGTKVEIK

*A*
0.000778
0.00225
0.00154

// input: 2 binders below; output: koff for each
1. BA-133-04-02 (antibody, V domains shown, also called CPE hit BA133-04-02) VH: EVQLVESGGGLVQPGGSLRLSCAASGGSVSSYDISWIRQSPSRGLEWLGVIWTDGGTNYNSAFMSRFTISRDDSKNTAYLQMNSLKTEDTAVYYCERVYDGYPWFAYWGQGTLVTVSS VL: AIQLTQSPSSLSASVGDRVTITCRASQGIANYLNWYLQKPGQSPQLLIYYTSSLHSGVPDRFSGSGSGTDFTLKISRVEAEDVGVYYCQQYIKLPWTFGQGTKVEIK
2. BA-133-04-04 (antibody, V domains shown, the killing assays used the ADC form; also called CPE hit BA133-04-04) VH: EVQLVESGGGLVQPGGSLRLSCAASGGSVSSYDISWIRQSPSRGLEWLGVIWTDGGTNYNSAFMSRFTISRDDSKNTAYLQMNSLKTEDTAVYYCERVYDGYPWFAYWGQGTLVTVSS VL: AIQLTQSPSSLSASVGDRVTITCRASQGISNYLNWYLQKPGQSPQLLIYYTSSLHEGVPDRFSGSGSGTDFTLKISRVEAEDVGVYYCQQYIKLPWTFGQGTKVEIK

*A*
1: 0.00174; 2: 0.00241
